experimental target: IC-GPCR2 (Homo sapiens, UniProt Q8TDV5, S309L)
Construct: expressed in transfected cells
Sequence (Q8TDV5 whole entry S309L): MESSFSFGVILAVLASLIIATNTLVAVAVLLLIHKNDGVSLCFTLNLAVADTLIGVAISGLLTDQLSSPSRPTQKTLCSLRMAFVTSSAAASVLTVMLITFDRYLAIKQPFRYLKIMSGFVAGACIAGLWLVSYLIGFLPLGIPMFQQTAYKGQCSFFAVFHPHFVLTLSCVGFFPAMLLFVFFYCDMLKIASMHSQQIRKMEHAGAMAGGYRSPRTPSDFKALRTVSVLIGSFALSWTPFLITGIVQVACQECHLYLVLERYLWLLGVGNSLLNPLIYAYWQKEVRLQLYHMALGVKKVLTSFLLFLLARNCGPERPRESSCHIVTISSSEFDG
assay explanation: Stimulation of cAMP in CHO cells stably expressing IC-GPCR2 (HTRF cAMP assay)
Type: cell-based
run parameters: 0.5 h, 30 minutes, IC-GPCR2 stably expressing CHO cells, read-out: Activity at 10 uM (% change in FRET signal from DMSO control)
quantity measured: activation at 10 µM (%)

• O=C(OCCOCc1ccccc1)N1CCC(c2nc(COc3ccc(-n4cnnn4)cc3)cs2)CC1 = 80
• CC(C)(C)C(=O)CN1CCC(c2nc(COc3ccc(-n4cnnn4)cc3)cs2)CC1 = 54
• CC(C)(C)OC(=O)N1CCC(c2nc(COc3ccc(S(C)(=O)=O)cc3)no2)CC1 = 59
• COc1ccc(-c2cnc(N3CCC(c4nc(COc5ccc(-n6cnnn6)cc5)cs4)CC3)nc2)cc1 = 57
• COC(=O)c1cc(C)nc(N2CCC(c3nc(COc4ccc(-n5cnnn5)cc4)cs3)CC2)n1 = 75

I. NC(=O)N1CCC(c2nc(COc3ccc(-n4cnnn4)cc3)cs2)CC1
II. CC(C)(C)OC(=O)N1CCC(c2nc(COc3ccccc3)cs2)CC1
Problem: Lab note: check whether I or II has the lower measured activation at 10 µM. Please respond with the label that marks your chosen entry.
Result: II
(II: 35%, I: 67%)
